target: Calmodulin-1 (Homo sapiens) (UniProt P0DP23); test: calcium-bound CALM1 binders on microarrays, profiling panel, artefact control for SMM control-protein annotation, biochemical, small-molecule microarray, Cy5-labelled CALM1, plus calcium (AID 1112); conditions: Cy5-CALM1 binding fluorescence, higher = more signal;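 note: score merges spot fluorescence with signal to noise from triplicate slides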
Quick list: composite z-score per entry.
EXPERIMENTAL ENDPOINT: composite z-score

>  <COMPOUND>
O=C1OCCC/C=C\[C@H]2OC34C=CCN(CCN5CCOCC5)C(=O)[C@H]3N(CCCCCCO)C(=O)[C@@H]4C12 (some centres not stated)

>  <VALUE MEASURED>
-0.909

$$$$
>  <COMPOUND>
CCOC(=O)C1CCCCN1 (configuration not stated)

>  <VALUE MEASURED>
-0.483

$$$$
>  <COMPOUND>
Cn1cccc1C(O)C1C=CC2C(=O)NC(=O)C2N1Nc1ccc(Cl)cc1Cl (configuration not stated)

>  <VALUE MEASURED>
0.879

$$$$
>  <COMPOUND>
COCCOC(=O)N1C(=O)[C@@]2(c3cc(C#Cc4ccc(OC)cc4)ccc31)[C@H](C(=O)Nc1nc3ccccc3s1)[C@H]1C(=O)O[C@H](c3ccccc3)[C@H](c3ccccc3)N1[C@@H]2c1ccc(OCCO)cc1

>  <VALUE MEASURED>
-0.621

$$$$
>  <COMPOUND>
Cc1cc(C)c(C(O)C2C=CC3C(=O)NC(=O)C3N2Nc2ccc(Cl)cc2Cl)c(C)c1 (configuration not stated)

>  <VALUE MEASURED>
0.954

$$$$
>  <COMPOUND>
COc1ccc([Si](C)(C)[C@@H]2[C@@H](CCn3cc([C@H](O)c4ccccc4)nn3)O[C@]3(C(=O)N(Cc4ccc(N5CCC5=O)cc4)c4ccccc43)[C@H]2C)cc1

>  <VALUE MEASURED>
-0.0351

$$$$
>  <COMPOUND>
COCCCNC(=O)[C@@]1(Cc2ccccc2CN=[N+]=[N-])N=C(c2ccc(OCCCO)cc2)O[C@H]1c1ccccc1

>  <VALUE MEASURED>
0.475

$$$$

* * *

assay: yeast growth modulation, basal conditions, primary screen, YJM789 clinical isolate, OD600, 24 h (AID 1089);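 note: growth of clinical yeast isolate S. cerevisiae YJM 789 seeded 1000 cells per well; test concentration not given here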; conditions: S. cerevisiae YJM789 growth, higher = more signal, called active from +8 up or from −8 down
Quick list: z-score per entry.
EXPERIMENTAL ENDPOINT: z-score

>  <MOLECULE>
COC(=O)[C@@]1(Cc2ccc(OC)cc2)[C@H]2c3cc(C(=O)N(C)C)n(C[C@H](O)CO)c3C[C@H]2CN1C(=O)c1ccccc1

>  <EXPERIMENTAL ENDPOINT>
z-score

>  <VALUE MEASURED>
0.398

$$$$
>  <MOLECULE>
COCCCNC(=O)[C@@]1(Cc2ccccc2N=[N+]=[N-])COC(c2ccc(OCCCO)cc2)=N1

>  <EXPERIMENTAL ENDPOINT>
z-score

>  <VALUE MEASURED>
-0.0885

$$$$
>  <MOLECULE>
COC(=O)[C@@]1(Cc2ccccc2N=[N+]=[N-])N=C(c2ccc(OCCCO)cc2)O[C@H]1c1ccccc1N=[N+]=[N-]

>  <EXPERIMENTAL ENDPOINT>
z-score

>  <VALUE MEASURED>
-1.13

$$$$
>  <MOLECULE>
COc1ccccc1CN1C(=O)c2ccccc2[C@](Cc2ccccc2I)(C(=O)NCC(F)(F)F)[C@@H]1c1ccc(CO)cc1

>  <EXPERIMENTAL ENDPOINT>
z-score

>  <VALUE MEASURED>
-0.23

$$$$
>  <MOLECULE>
COC(=O)C(CC#Cc1ccc2c(c1)[C@]1(C(=O)N2)[C@H](c2ccccc2OCCO)N2[C@H](c3ccccc3)[C@H](c3ccccc3)OC(=O)[C@H]2[C@@H]1C(=O)NC[C@H](O)c1ccccc1)C(=O)OC

>  <EXPERIMENTAL ENDPOINT>
z-score

>  <VALUE MEASURED>
2.51

$$$$
>  <MOLECULE>
CN1C(=O)C2C=CC(C(O)c3ccc(F)cc3)N(Nc3ccccc3)C2C1=O (configuration not stated)

>  <EXPERIMENTAL ENDPOINT>
z-score

>  <VALUE MEASURED>
0.397

$$$$
>  <MOLECULE>
OCCCC1=CC(c2ccc(CN3CCCC3)cc2)N(Cc2sc3ccccc3c2Cl)CC1 (configuration not stated)

>  <EXPERIMENTAL ENDPOINT>
z-score

>  <VALUE MEASURED>
-0.72

$$$$
